- Tested on: tet-on competent MLL/AF9+Nras AML
- procedureDetails: Pooled negative selection RNAi screening (deep sequencing)
- Type: cell-based, mouse
- runParameters: deep sequencing reads, On Dox compared to T0
Catalogue of Fold depletion in AML readings, one per entry.
State just the number; it will be interpreted in Fold.

Query :: Report Fold depletion in AML for Plod3.3138: shRNA, SEQ ID NO: 169 (nucleic acid) TGCTGTTGACAGTGAGCGACTCAGCCTCACTTTCAATAAATAGTGAAGCCACAGATGTATTTATTGAAAGTGAGGCTGAGGTGCCTACTGCCTCGGA please.
Result :: 21.28

Query :: Report Fold depletion in AML for Pkm2.2154: shRNA, SEQ ID NO: 166 (nucleic acid) TGCTGTTGACAGTGAGCGCGCCCACCTGAATGTCAATAAATAGTGAAGCCACAGATGTATTTATTGACATTCAGGTGGGCATGCCTACTGCCTCGGA please.
Result :: 9.63

Query :: Report Fold depletion in AML for Trp53.1224: neutral control shRNA, SEQ ID NO: 214 (nucleic acid) TGCTGTTGACAGTGAGCGCCCACTACAAGTACATGTGTAATAGTGAAGCCACAGATGTATTACACATGTACTTGTAGTGGATGCCTACTGCCTCGGA please.
Result :: 0.10
